# subjectOfTest: mMC1R (Mus musculus, UniProt Q01727)
# Sequence (Q01727 whole entry): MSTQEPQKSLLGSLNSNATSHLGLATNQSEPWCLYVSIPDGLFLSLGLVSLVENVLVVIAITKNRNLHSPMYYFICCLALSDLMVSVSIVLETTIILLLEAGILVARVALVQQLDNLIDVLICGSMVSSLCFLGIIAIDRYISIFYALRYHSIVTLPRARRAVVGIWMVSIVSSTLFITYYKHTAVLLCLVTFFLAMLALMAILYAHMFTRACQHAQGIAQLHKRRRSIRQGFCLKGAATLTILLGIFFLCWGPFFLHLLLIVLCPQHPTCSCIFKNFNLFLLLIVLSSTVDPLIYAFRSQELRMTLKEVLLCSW
# protocolText: cAMP-based β-galactosidase reporter agonist assay in HEK293 cells, mMC1R
# experimentalConditions: EC50 of substituted peptide divided by EC50 of NDP-MSH; potency loss
measuredParameter: mMC1R fold difference (fold)
Give bare numbers, in fold.

Consider the following items and state reported mMC1R fold difference for each.
1. CC(=O)N[C@@H](CO)C(=O)N[C@@H](Cc1ccc(O)cc1)C(=O)N[C@@H](CO)C(=O)N[C@@H](C)C(=O)N[C@@H](CCC(=O)O)C(=O)N[C@@H](Cc1c[nH]cn1)C(=O)N[C@H](Cc1ccccc1)C(=O)N[C@@H](CCCNC(=N)N)C(=O)N[C@@H](Cc1c[nH]c2ccccc12)C(=O)NCC(=O)N[C@@H](CCCCN)C(=O)N1CCC[C@H]1C(=O)N[C@H](C(N)=O)C(C)C [[Ala^4]NDP-MSH]
2. CCCC[C@H](NC(=O)[C@H](CO)NC(=O)[C@H](Cc1ccc(O)cc1)NC(=O)[C@H](CO)NC(C)=O)C(=O)N[C@@H](CCC(=O)O)C(=O)N[C@@H](Cc1c[nH]cn1)C(=O)N[C@@H](C)C(=O)N[C@@H](CCCNC(=N)N)C(=O)N[C@@H](Cc1c[nH]c2ccccc12)C(=O)NCC(=O)N[C@@H](CCCCN)C(=O)N1CCC[C@H]1C(=O)N[C@H](C(N)=O)C(C)C [[Ala^7]NDP-MSH]

Response line:
1: 5; 2: 2350

====

Record form. Attribute: mMC4R fold difference. Fill in for each entry.
# subjectOfTest: UniProt P56450
# Sequence (P56450 whole entry): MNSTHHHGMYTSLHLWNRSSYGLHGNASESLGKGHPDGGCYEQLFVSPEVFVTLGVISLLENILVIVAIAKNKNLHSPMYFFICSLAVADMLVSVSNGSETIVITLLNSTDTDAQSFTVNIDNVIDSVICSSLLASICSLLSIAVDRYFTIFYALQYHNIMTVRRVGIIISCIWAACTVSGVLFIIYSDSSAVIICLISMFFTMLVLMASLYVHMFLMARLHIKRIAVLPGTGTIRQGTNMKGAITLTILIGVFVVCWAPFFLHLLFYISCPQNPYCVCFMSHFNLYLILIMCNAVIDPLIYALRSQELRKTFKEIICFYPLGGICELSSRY
# protocolText: cAMP-based β-galactosidase reporter agonist assay in HEK293 cells, mMC4R
# experimentalConditions: EC50 of substituted peptide divided by EC50 of α-MSH; potency loss

CSCC[C@H](NC(=O)[C@H](CO)NC(=O)[C@H](Cc1ccc(O)cc1)NC(=O)[C@H](CO)NC(C)=O)C(=O)N[C@@H](CCC(=O)O)C(=O)N[C@@H](Cc1c[nH]cn1)C(=O)N[C@@H](C)C(=O)N[C@@H](CCCNC(=N)N)C(=O)N[C@@H](Cc1c[nH]c2ccccc12)C(=O)NCC(=O)N[C@@H](CCCCN)C(=O)N1CCC[C@H]1C(=O)N[C@H](C(N)=O)C(C)C [[Ala^7]α-MSH] | 190 fold
CC(=O)N[C@@H](CO)C(=O)N[C@@H](Cc1ccc(O)cc1)C(=O)N[C@@H](CO)C(=O)N[C@@H](C)C(=O)N[C@@H](CCC(=O)O)C(=O)N[C@@H](Cc1c[nH]cn1)C(=O)N[C@@H](Cc1ccccc1)C(=O)N[C@@H](CCCNC(=N)N)C(=O)N[C@@H](Cc1c[nH]c2ccccc12)C(=O)NCC(=O)N[C@@H](CCCCN)C(=O)N1CCC[C@H]1C(=O)N[C@H](C(N)=O)C(C)C [[Ala^4]α-MSH] | 5 fold

Turning now to a further record.
Prompt line: What mMC4R fold difference value was documented for this compound, CSCC[C@H](NC(=O)[C@H](CO)NC(=O)[C@H](Cc1ccc(O)cc1)NC(=O)[C@H](CO)NC(C)=O)C(=O)N[C@@H](C)C(=O)N[C@@H](Cc1c[nH]cn1)C(=O)N[C@@H](Cc1ccccc1)C(=O)N[C@@H](CCCNC(=N)N)C(=O)N[C@@H](Cc1c[nH]c2ccccc12)C(=O)NCC(=O)N[C@@H](CCCCN)C(=O)N1CCC[C@H]1C(=O)N[C@H](C(N)=O)C(C)C [[Ala^5]α-MSH] ?
Response line: 15 fold
